All values here come from patent US20140112930A1.

Readings of T1/2 for the listed binders
target-of-assay: T1, Dimeric Monkey Ang-2FD conjugated to human IgG1 (monkey (Macca fascicularis); human)
T1 construct: also called Monkey Ang-2FD-hFc
T1 sequence (chain, as listed by the source limits assumed): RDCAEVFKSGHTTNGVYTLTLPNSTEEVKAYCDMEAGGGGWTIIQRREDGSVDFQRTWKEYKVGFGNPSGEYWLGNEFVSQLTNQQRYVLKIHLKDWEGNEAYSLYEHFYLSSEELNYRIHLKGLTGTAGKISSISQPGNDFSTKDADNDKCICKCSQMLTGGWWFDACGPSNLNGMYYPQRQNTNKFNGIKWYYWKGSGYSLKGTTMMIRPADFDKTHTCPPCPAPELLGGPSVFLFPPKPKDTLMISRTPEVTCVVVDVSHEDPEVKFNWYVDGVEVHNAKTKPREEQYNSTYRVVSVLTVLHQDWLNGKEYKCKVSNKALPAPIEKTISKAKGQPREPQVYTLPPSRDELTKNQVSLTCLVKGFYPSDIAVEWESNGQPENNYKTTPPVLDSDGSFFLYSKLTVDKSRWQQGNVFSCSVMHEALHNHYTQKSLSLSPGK
test-description: SPR, captured Ab, RT
Write the answer as a number in min, unit excluded.

Use the examples below as a reference point.
Look at this binder and give its reported T1/2. H2M749N (antibody, V domains shown, also called H1M749N; H1M749) VH: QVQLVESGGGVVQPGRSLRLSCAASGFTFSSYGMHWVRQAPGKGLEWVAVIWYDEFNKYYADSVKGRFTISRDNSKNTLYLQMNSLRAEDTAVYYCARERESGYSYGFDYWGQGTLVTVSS VL: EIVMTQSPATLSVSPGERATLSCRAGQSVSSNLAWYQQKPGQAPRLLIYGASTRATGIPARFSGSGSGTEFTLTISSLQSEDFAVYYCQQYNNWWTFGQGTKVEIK
40.9

Would you kindly share the measured T1/2 for H2M750N (antibody, V domains shown) VH: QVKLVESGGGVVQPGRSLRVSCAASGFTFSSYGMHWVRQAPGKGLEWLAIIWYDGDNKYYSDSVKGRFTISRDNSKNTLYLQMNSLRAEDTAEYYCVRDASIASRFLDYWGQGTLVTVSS VL: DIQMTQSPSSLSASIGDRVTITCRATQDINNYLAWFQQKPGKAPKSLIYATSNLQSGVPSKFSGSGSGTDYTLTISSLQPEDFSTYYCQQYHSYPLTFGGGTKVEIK ?
23

Please look up its T1/2: H1M724N (antibody, V domains shown) VH: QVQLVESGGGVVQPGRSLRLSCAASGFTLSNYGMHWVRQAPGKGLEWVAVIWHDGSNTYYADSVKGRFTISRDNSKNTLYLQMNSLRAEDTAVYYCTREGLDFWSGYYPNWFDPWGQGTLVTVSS VL: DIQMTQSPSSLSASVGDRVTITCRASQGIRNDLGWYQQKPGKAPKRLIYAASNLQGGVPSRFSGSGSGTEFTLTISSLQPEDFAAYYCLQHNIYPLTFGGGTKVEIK
25.7

Which measured T1/2 value corresponds to H1H742N (antibody, V domains shown) VH: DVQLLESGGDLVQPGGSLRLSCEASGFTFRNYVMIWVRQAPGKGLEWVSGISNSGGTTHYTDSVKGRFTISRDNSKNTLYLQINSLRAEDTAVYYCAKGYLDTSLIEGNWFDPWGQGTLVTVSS VL: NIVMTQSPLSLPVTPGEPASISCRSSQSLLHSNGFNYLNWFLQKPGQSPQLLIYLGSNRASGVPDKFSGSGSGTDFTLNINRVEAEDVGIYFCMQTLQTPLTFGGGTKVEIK ?
93

Next:
Item H1H750N (antibody, V domains shown) VH: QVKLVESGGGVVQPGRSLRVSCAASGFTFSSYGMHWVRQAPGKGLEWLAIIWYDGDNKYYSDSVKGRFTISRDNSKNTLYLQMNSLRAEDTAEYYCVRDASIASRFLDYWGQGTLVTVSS VL: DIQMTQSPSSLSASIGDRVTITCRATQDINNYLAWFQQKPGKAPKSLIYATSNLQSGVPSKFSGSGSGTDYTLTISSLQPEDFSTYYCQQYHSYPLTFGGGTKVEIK has what recorded T1/2?
244
